tested on: 922993-354-T-J3-PDC complex spheroid viability; test: Anticancer human tumor 922993-354-T-J3-PDC patient-derived endometrial carcinoma cell line growth inhibition [POLQ]; conditions: curve of first compound; second compound 3.16 µM;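 also: spheroids exposed to the agents for one week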
Readout: pIC50
The read-out pIC50 is expressed as -log10 of concentration in moles per litre.

Solved entries:
• CC1COCCN1c1cc(C2(S(C)(=N)=O)CC2)nc(-c2ccnc3[nH]ccc23)n1 (stereo not given) + Cc1cccc(N(C)C(=O)C2C(O)CCN2c2nc(C)cc(C(F)(F)F)c2C#N)c1 = 5.09
• O=c1[nH]cc(F)c(=O)[nH]1 + COC1C(OC(N)=O)C(O)C(Oc2ccc3c(O)c(NC(=O)c4ccc(O)c(CC=C(C)C)c4)c(=O)oc3c2C)OC1(C)C = 5.68
• COc1cccc(OCCCN)c1-c1cc(Nc2cnc(C#N)cn2)n[nH]1 + Nc1ccc(C#CCN(C(=O)Cc2ncc(C(F)(F)F)cc2C(F)(F)F)c2ccc(F)cc2)nn1 = 6.56
• O=c1[nH]cc(F)c(=O)[nH]1 + Cc1cccc(N(C)C(=O)C2C(O)CCN2c2nc(C)cc(C(F)(F)F)c2C#N)c1 = 5.60
• CCc1c2c(nc3ccc(O)cc13)-c1cc3c(c(=O)n1C2)COC(=O)[C@]3(O)CC + Nc1ccc(C#CCN(C(=O)Cc2ncc(C(F)(F)F)cc2C(F)(F)F)c2ccc(F)cc2)nn1 = 7.66

Now examine the next entry.
Exercise: Name the recorded pIC50 for COc1cc(C2c3cc4c(cc3C(OC3OC5COC(C)OC5C(O)C3O)C3COC(=O)C23)OCO4)cc(OC)c1O (stereo not given) + Cc1cccc(N(C)C(=O)C2C(O)CCN2c2nc(C)cc(C(F)(F)F)c2C#N)c1 .
Key: 5.20
